# residual activity annotations
Molecular target: Mitogen-activated protein kinase kinase kinase 7 (Homo sapiens) (UniProt O43318)
Sequence (O43318 whole entry): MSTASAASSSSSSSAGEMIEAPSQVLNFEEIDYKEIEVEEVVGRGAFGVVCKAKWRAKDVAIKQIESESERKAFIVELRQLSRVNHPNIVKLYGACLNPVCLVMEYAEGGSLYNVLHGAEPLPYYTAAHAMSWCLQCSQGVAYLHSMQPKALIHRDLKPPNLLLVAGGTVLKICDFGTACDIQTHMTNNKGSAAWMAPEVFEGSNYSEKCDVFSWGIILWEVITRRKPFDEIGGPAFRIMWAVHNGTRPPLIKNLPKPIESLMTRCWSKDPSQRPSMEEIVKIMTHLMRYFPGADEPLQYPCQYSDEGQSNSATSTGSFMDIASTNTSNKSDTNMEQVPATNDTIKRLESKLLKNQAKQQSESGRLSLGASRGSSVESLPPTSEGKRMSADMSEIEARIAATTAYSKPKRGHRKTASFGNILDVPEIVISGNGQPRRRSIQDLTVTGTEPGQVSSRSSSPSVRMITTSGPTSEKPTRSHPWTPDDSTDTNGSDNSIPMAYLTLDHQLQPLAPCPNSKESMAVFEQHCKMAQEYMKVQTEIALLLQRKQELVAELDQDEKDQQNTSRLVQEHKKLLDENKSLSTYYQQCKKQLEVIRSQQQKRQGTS
Details: at 10 µM
MEASURED_PROPERTY: residual activity (%)

[
  {
    "ENTRY_SMILES": "CC(C)n1cnc2/c(=N/c3cccc(Cl)c3)nc(NCCO)[nH]c21",
    "READING": 24
  },
  {
    "ENTRY_SMILES": "COc1ccc(C(=O)Nc2sc3c(c2C(N)=O)CCCC3)cc1OC",
    "READING": 86
  },
  {
    "ENTRY_SMILES": "O=C1Nc2cc(Br)ccc2/C1=C1/Nc2ccccc2/C1=N\\O",
    "READING": 81
  },
  {
    "ENTRY_SMILES": "O=C1c2ccccc2-[n+]2ccc3c([nH]c4ccccc43)c21",
    "READING": 82
  },
  {
    "ENTRY_SMILES": "Cn1nc2c3c(cccc31)C(=O)c1ccccc1-2",
    "READING": 46
  },
  {
    "ENTRY_SMILES": "COc1ccc(S(=O)(=O)N(CCO)c2ccccc2CN(C)C/C=C/c2ccc(Cl)cc2)cc1",
    "READING": 82
  },
  {
    "ENTRY_SMILES": "N#CC(C#N)=C(N)/C(C#N)=C/c1ccc(O)cc1",
    "READING": 89
  },
  {
    "ENTRY_SMILES": "Cc1cc(Nc2nc(-c3ccccc3)nc3ccccc23)n[nH]1",
    "READING": 40
  },
  {
    "ENTRY_SMILES": "COc1cccc(-c2cc(=O)c3ccccc3o2)c1N",
    "READING": 98
  }
]

====

Biological target: Serine/threonine-protein kinase ULK3 (Homo sapiens) (UniProt Q6PHR2)
Sequence (Q6PHR2 whole entry): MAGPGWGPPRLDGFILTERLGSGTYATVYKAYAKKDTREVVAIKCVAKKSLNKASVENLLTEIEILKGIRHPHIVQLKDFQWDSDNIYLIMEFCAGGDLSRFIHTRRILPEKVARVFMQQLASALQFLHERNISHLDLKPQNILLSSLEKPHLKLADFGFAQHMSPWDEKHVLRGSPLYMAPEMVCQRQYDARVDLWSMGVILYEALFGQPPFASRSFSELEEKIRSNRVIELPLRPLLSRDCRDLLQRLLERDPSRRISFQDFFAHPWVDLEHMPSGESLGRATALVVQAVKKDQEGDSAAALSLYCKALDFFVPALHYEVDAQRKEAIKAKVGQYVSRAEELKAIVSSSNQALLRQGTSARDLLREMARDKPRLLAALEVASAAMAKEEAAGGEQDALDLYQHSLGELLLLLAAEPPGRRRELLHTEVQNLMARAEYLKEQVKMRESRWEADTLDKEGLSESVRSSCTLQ
Details: at 10 µM
MEASURED_PROPERTY: residual activity (%)

[
  {
    "ENTRY_SMILES": "Ic1cccc(CSc2nnc(-c3ccncc3)o2)c1",
    "TEST_SYSTEM": "Serine/threonine-protein kinase ULK3 (Homo sapiens) (UniProt Q6PHR2)",
    "READING": 92
  },
  {
    "ENTRY_SMILES": "O=C1NC(=O)/C(=C/c2ccc3c(c2)OC(F)(F)O3)S1",
    "TEST_SYSTEM": "Serine/threonine-protein kinase ULK3 (Homo sapiens) (UniProt Q6PHR2)",
    "READING": 89
  },
  {
    "ENTRY_SMILES": "N#Cc1cnc2cnc(NCc3cccnc3)cc2c1Nc1ccc(F)c(Cl)c1",
    "TEST_SYSTEM": "Serine/threonine-protein kinase ULK3 (Homo sapiens) (UniProt Q6PHR2)",
    "READING": 88
  }
]

====

Measured residual activity by item
Biological target: Death-associated protein kinase 1 (Homo sapiens)
Conditions: at 10 µM
MEASURED_PROPERTY: residual activity (%)

[
  {
    "COMPOUND": "O=C1Nc2cc(Br)ccc2/C1=C1/Nc2ccccc2/C1=N\\O",
    "MEASURED_PROPERTY": "residual activity",
    "READING": 46
  },
  {
    "COMPOUND": "CCC(=O)Nc1ccc2ncnc(Nc3cccc(Br)c3)c2c1",
    "MEASURED_PROPERTY": "residual activity",
    "READING": 93
  },
  {
    "COMPOUND": "O=C1Nc2ccccc2/C1=C1/Nc2ccccc2/C1=N\\OCCC(O)CO (centres undefined)",
    "MEASURED_PROPERTY": "residual activity",
    "READING": 43
  },
  {
    "COMPOUND": "Ic1cccc(CSc2nnc(-c3ccncc3)o2)c1",
    "MEASURED_PROPERTY": "residual activity",
    "READING": 76
  },
  {
    "COMPOUND": "O=C1NC(=O)/C(=C/c2ccc3c(c2)OC(F)(F)O3)S1",
    "MEASURED_PROPERTY": "residual activity",
    "READING": 81
  },
  {
    "COMPOUND": "Cc1cc2ncc(-c3ccccc3)nc2cc1C",
    "MEASURED_PROPERTY": "residual activity",
    "READING": 88
  },
  {
    "COMPOUND": "Nc1cccc(-c2cc3c(Oc4cccc(O)c4)ncnc3[nH]2)c1",
    "MEASURED_PROPERTY": "residual activity",
    "READING": 101
  },
  {
    "COMPOUND": "CCOc1cc2ncnc(Nc3cccc(Br)c3)c2cc1OCC",
    "MEASURED_PROPERTY": "residual activity",
    "READING": 85
  },
  {
    "COMPOUND": "c1ccc(-c2n[nH]c3c2oc2ccccc23)cc1",
    "MEASURED_PROPERTY": "residual activity",
    "READING": 98
  }
]
